biological target: ProL/A-HRP; test: ELISA screen of scFv clones, plate panel 'ProL/A-HRP' (scFv quality check)
Assignment: determine reported ELISA OD450 for the given binders.
In your answer, state the number alone without any accompanying words.

# query: ELISA OD450 of entry CD26-04A scFv (scFv, part only; not given: VL-VH linker and detection tag, V domains shown, not shown: another chain or arm of the molecule; small tags and cut ends) VL: DIQMTQSPSSLSASVGDRVTITCRASQDVSGGVAWYQQKPGKAPKLLIYGTSGLYSGVPSRFSGSGSGTDFTLTISSLQPEDFATYYCQQGGDWPITFGQGTKVEIK VH: EVQLVESGGGLVQPGGSLRLSCAASGFAINNYSIHWVRQAPGKGLEWVASIWPYGGFTSYADSVKGRFTISADTSKNTAYLQMNSLRAEDTAVYYCARFFSSYGDMDYWGQGTLVTVSS 3.11

# query: ELISA OD450 of entry CD26-01D scFv (scFv, part only; not given: VL-VH linker and detection tag, V domains shown, not shown: another chain or arm of the molecule; small tags and cut ends) VL: DIQMTQSPSSLSASVGDRVTITCRASQDVNSNVAWYQQKPGKAPKLLIFGSGGLYSGVPSRFSGSGSGTDFTLTISSLQPEDFATYYCQQYSSYPLTFGQGTKVETK VH: EVQLVESGGGLVQPGGSLRLSCAASGFTINDSYIHWVRQAPGKGLEWVAWIWPYGGFTYYADSVKGRFTISADTSKNTAYLQMNSLRAEDTAVYYCARFLGSSSIMDYWGQGTLVTVSS 3.13

# query: ELISA OD450 of entry CD26-03B scFv (scFv, part only; not given: VL-VH linker and detection tag, V domains shown, not shown: another chain or arm of the molecule; small tags and cut ends) VL: DIQMTQSPSSLSASVGDRVTITCRASQDVYYFVAWYQQKPGKAPKLLISWPTGLYSGVPSRFSGSGSGTDFTLTISSLQPEDFATYYCQQYFSYPITFGQGTKVEIK VH: EVQLVESGGGLVQPGGSLRLSCAASGFTIGNSYIHWVRQAPGKGLEWVAGIGPYWGFTSYADSVKGRFTISADTSKNTAYLQMNSLRAEDTAVYYCARFNGSSGFMDYWGQGTLVTVSS 3.14

# query: ELISA OD450 of entry CD26-10B scFv (scFv, part only; not given: VL-VH linker and detection tag, V domains shown, not shown: another chain or arm of the molecule; small tags and cut ends) VL: DIQMTQSPSSLSASVGDRVTITCRASQDVWGYVAWYQQKPGKAPKLLIFASGALYSGVPSRFSGSGSGTDFTLTISSLQPEDFATYYCQQYFNWPITFGQGTKVEIK VH: EVQLVESGGGLVQPGGSLRLSCAASGFTISDYSIHWVRQAPGKGLEWVASIWPYGGFTSYADSVKGRFTISADTSKNTAYLQMNSLRAEDTAVYYCARFHSSSGDMDYWGQGTLVTVSS 3.03

# query: ELISA OD450 of entry CD26-12D scFv (scFv, part only; not given: VL-VH linker and detection tag, V domains shown, not shown: another chain or arm of the molecule; small tags and cut ends) VL: DIQMTQSPSSLSASVGDRVTITCRASQDVYSWVAWYQQKPGKAPKLLIYGPGSLYSGVPSRFSGSGSGTDFTLTISSLQPEDFATYYCQQYYNYPLTFGQGTKVEIK VH: EVQLVESGGGLVQPGGSLRLSCAASGFTINSSYIHWVRQAPGKGLEWVAGIGPYWGFTSYADSVKGRFTISADTSKNTAYLQMNSLRAEDTAVYYCARFYSSYGFMDYWGQGTLVTVSS 3.05

These measurements were taken from patent US12497462.
